These measurements were taken from ChEMBL document CHEMBL5233217.

Entries and their measured pIC50 follow.
# System: Hep 3B2
# assay explanation: Antiproliferative activity against human Hep3B cells assessed as reduction in cell viability
# Format: functional, cell-based
// scale note: pIC50 = -log10(conc_M); give the bare number

- smiles entry: "CCn1cc(-c2nn(CNc3ccc(Cl)cc3)c(=S)o2)c(=O)c2cc(F)c(N3CCN(C)CC3)cc21"
  test value: 4.34
- smiles entry: "CCn1cc(-c2nc(SCc3nnc(-c4ccc(F)cc4)o3)n(CN(C)C)n2)c(=O)c2cc(F)c(N3CCN(C)CC3)cc21"
  test value: 5.82

## Task Return reported pIC50. Input compound: CCn1cc(-c2nnc(SCc3nnc(-c4ccccc4OC)o3)[nH]2)c(=O)c2cc(F)c(N3CCN(C)CC3)cc21
## Result 5.42

## Task Return reported pIC50. Input compound: CCn1cc(-c2nn(CN(C)C)c(=S)o2)c(=O)c2cc(F)c(N3CCN(C)CC3)cc21
## Result 5.08

## Task Return reported pIC50. Input compound: CCn1cc(-c2nnc(SCc3nnc(-c4ccc(F)cc4)o3)[nH]2)c(=O)c2cc(F)c(N3CCN(C)CC3)cc21
## Result 5.42

---

# System: L1210
# assay explanation: Antiproliferative activity against mouse L1210 cells assessed as reduction in cell viability by MTT assay
# Type: functional, cell-based
property label: pIC50
// scale note: pIC50 = -log10(conc_M); give the bare number

- smiles entry: "CCN1CCN(c2cc3c(cc2F)c(=O)c(-c2nnc4sc(-c5cn(C6CC6)c6cc(N7CCN(C)CC7)c(F)cc6c5=O)nn24)cn3C2CC2)CC1"
  test value: 5.60
- smiles entry: "CCN1CCN(c2cc3c(cc2F)c(=O)c(-c2nn4c(-c5cn(C6CC6)c6cc(N7CCN(CC)CC7)c(F)cc6c5=O)nnc4s2)cn3C2CC2)CC1"
  test value: 5.92

For the next question, use this compound.
## Task Return reported pIC50. Input compound: CCN1CCN(c2cc3c(cc2F)c(=O)c(-c2nnc4sc(-c5cn(C6CC6)c6cc(N7CCNCC7)c(F)cc6c5=O)nn24)cn3C2CC2)CC1
## Result 6.70

---

# assay explanation: Cytotoxicity against mouse BMSC cells assessed as reduction in cell viability incubated for 48 hrs by MTT assay
# Type: toxicity, cell-based
property label: IC50 at 48 h (µM)
API: value field is a number in µM; no unit string.

## Task Return reported IC50 at 48 h. Input compound: COc1cc(/C=N/NC(=O)c2cn3c4c(c(N5CCN(C)CC5)c(F)cc4c2=O)OC[C@@H]3C)cc(OC)c1OC
## Result 7.46

---

# Tested on: Panel NCI-60 (60 carcinoma cell lines)
# assay explanation: Anticancer activity against human Panel NCI-60 (60 carcinoma cell lines) cells assessed as cell growth inhibition incubated for 48 hrs by sulforhodamine B assay
# Assay type: functional
Entries and their measured GI50 follow.
API: value field is a number in µM; no unit string.

Known results for molecules:
- smiles entry: "C#Cc1cccc(Nc2ncnc3cc(OCCOC)c(OCCOC)cc23)c1"
  GI50, µM: 7.29
- smiles entry: "CCn1cc(C(=O)O)c(=O)c2cc(F)c(N3CCN(S(=O)(=O)c4ccc(Cl)cc4Cl)CC3)cc21"
  GI50, µM: 2.63
- smiles entry: "Cc1cc(C)c(S(=O)(=O)N2CCN(c3cc4c(cc3F)c(=O)c(C(=O)O)cn4C3CC3)CC2)c(C)c1"
  GI50, µM: 2.63
- smiles entry: "COc1ccc(C(=O)CN2CCN(c3cc4c(cc3F)c(=O)c(C(=O)O)cn4-c3ccc(N)cc3F)CC2)cc1"
  GI50, µM: 22

## Task Fill: GI50 (Panel NCI-60 (60 carcinoma cell lines)) for this molecule CCn1cc(C(=O)O)c(=O)c2cc(F)c(N3CCN(S(=O)(=O)c4cccc5ccccc45)CC3)cc21
## Result 2.63

## Task Fill: GI50 (Panel NCI-60 (60 carcinoma cell lines)) for this molecule O=C(O)c1cn(C2CC2)c2cc(N3CCN(S(=O)(=O)c4ccc(Cl)c(Cl)c4)CC3)c(F)cc2c1=O
## Result 2.63

## Task Fill: GI50 (Panel NCI-60 (60 carcinoma cell lines)) for this molecule CCn1cc(C(=O)O)c(=O)c2cc(F)c(N3CCN(CC(=O)c4ccccc4)CC3)cc21
## Result 22

## Task Fill: GI50 (Panel NCI-60 (60 carcinoma cell lines)) for this molecule O=c1[nH]cc(F)c(=O)[nH]1
## Result 22.6

## Task Fill: GI50 (Panel NCI-60 (60 carcinoma cell lines)) for this molecule CCn1cc(C(=O)O)c(=O)c2cc(F)c(N3CCN(CC(=O)c4ccc(OC)cc4)CC3)c(F)c21
## Result 22

## Task Fill: GI50 (Panel NCI-60 (60 carcinoma cell lines)) for this molecule CCn1cc(C(=O)O)c(=O)c2cc(F)c(N3CCN(S(=O)(=O)c4ccc(Cl)cc4)CC3)cc21
## Result 2.63
